Data origin, for the record: patent US20210380703A1

- target-entity: Human Fc (human)
- method-notes: ELISA; negative control
reported-endpoint: optical density (OD)
Answers are plain numbers, in OD.

binder	optical density, OD
374_A05 (antibody, V domains shown) VH: EVQLLESGGGLVQPGGSLRLSCAASGFTFSDYGMNWVRQAPGKGLEWVANINYNGGYKGYADSVKGRFTISRDNSKNTLYLQMNSLRAEDTAVYYCARGATWHDTHLDYWGQGTLVTVSS VL: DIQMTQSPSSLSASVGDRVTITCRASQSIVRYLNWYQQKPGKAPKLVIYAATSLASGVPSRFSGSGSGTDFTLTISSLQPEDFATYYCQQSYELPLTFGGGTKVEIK	0.159

Could you tell me optical density for each of these binders? They are listed below.
1. 373_D06 (antibody, V domains shown) VH: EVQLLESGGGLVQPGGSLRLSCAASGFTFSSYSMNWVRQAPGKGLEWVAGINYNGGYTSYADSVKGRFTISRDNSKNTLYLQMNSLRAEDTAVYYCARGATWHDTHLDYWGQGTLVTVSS VL: DIQMTQSPSSLSASVGDRVTITCRASQSIVTYLNWYQQKPGKAPKLLIYAATSRASGVPSRFSGSGSGTDFTLTISSLQPEDFATYYCQQSYDTPLTFGGGTKVEIK
2. 366_G05 (antibody, V domains shown) VH: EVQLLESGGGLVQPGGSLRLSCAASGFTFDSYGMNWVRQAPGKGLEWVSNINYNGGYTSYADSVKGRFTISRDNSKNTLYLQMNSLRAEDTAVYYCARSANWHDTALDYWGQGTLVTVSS VL: DIQMTQSPSSLSASVGDRVTITCRASQSIISYVNWYQQKPGKAPKLVIYAATSRASGVPSRFSGSGSGTDFTLTISSLQPEDFATYYCQQSYENPLTFGGGTKVEIK
3. 365_E07 (antibody, V domains shown) VH: EVQLLESGGGLVQPGGSLRLSCAASGFTFDSYGMHWVRQAPGKGLEWVSGINYNSGYTSYADSVKGRFTISRDNSKNTLYLQMNSLRAEDTAVYYCAKSANWHDTHLDYWGQGTLVTVSS VL: DIQMTQSPSSLSASVGDRVTITCRASQSILSYLNWYQQKPGKAPKLLIYAATSRASGVPSRFSGSGSGTDFTLTISSLQPEDFATYYCQQSYDNPLTFGGGTKVEIK
4. 374_D04 (antibody, V domains shown) VH: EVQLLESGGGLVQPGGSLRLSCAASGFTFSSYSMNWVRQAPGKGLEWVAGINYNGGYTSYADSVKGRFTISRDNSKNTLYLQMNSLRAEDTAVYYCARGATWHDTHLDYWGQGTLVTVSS VL: DIQMTQSPSSLSASVGDRVTITCRASQSILSYLNWYQQKPGKAPKLVIYAATSRHSGVPSRFSGSGSGTDFTLTISSLQPEDFATYYCQQSYDTPLTFGGGTKVEIK

1: 0.192; 2: 0.28; 3: 0.302; 4: 0.179
